system: Plasmodium berghei; experiment: Screen against P. berghei liver stage (PbLuc), transformed with Luciferase, at 10uM; format: functional, HepG2; details: tested at 10 uM
In all, about 69,000 compounds went through this assay and about 8,600 (12%) showed an effect of 50% or more. This is one part of a sample in which strong results are shown more often than they occur.
Property name: INHIBITION (%)
Please give a number only; it is taken to be in %.

// worked examples, INHIBITION included
INSERT INTO results (molecule, property_name, reported) VALUES
  ('NC(=O)CN1CCCC1c1csc(Nc2cnccn2)n1 (centres undefined)', 'INHIBITION', 51.5),
  ('OCCN1CCC(c2csc(Nc3cnccn3)n2)CC1', 'INHIBITION', 0.825),
  ('Cc1nccn1-c1ccc(=O)n(CCNC(=O)c2c(F)cccc2Cl)n1', 'INHIBITION', 6.67);

Asked: Consider the molecule shown here: CC(=O)N1CCCC1c1csc(Nc2cnccn2)n1 (centres undefined) What is its recorded INHIBITION?
Given back: 13.5

Asked: Entry CS(=O)(=O)N1CCC2(CC1)CC(NCc1ccccn1)c1ccccc12 (centres undefined) has what INHIBITION?
Given back: 45.7

Asked: Quick check: INHIBITION of Brc1ccc(CNCc2nnc3n2CCCCC3)s1 ?
Given back: 21.8

Asked: Given the entry CNC(=O)CC1CC2(CCN(c3ncccn3)CC2)c2ccccc21 (centres undefined) , report its measured INHIBITION.
Given back: 55.6

Asked: Look up INHIBITION: Cc1nc(Nc2cnccn2)cc(C2CCN(c3ncccn3)C2)n1 (centres undefined)
Given back: -17.7

Asked: // returns reported INHIBITION for input CS(=O)(=O)N1CCC2(CC1)CC(NCc1ccco1)c1ccccc12 (centres undefined)
Given back: 66.6

Asked: Name the recorded INHIBITION for COc1ccc(S(=O)(=O)NC2(CC(N)=O)CCC2)cc1 .
Given back: 42.7

Asked: For the molecule shown here, CC(C)CN1C(=O)CC(N2CCN(c3ccc(F)cc3)CC2)C1=O (centres undefined) , give the reported INHIBITION.
Given back: 54

Asked: Which INHIBITION value is on record for Cn1cc(CNC2CC3(CCN(CC4CC4)CC3)c3ccccc32)cn1 (centres undefined) ?
Given back: -40.4

Asked: Given the entry Cc1ccc2c(c1)C1(CCN(C(=O)C3CC3)CC1)CC2N1CCOCC1 (centres undefined) , report its measured INHIBITION.
Given back: 10.7

Asked: Returns the measured INHIBITION for the input molecule. Input: CCCN1C(=O)CC(N2CCN(c3ccc(F)cc3)CC2)C1=O (centres undefined)
Given back: -34.7

Asked: I am curious: what INHIBITION value has been reported for c1cnc(N2CCCC(c3csc(Nc4cnccn4)n3)C2)nc1 (centres undefined) ?
Given back: 61.3

Asked: Consider the molecule CN(C)C(=O)CC1CC2(CCN(c3ncccn3)CC2)c2ccccc21 (centres undefined) and give its measured INHIBITION.
Given back: 38.5

Asked: Given CS(=O)(=O)N1CCC2(CC1)CC(NCC1CC1)c1ccccc12 (centres undefined) , state its recorded INHIBITION.
Given back: 59.3

Asked: If you can, please state the reported INHIBITION value of CN(Cc1ccco1)[C@@H]1CN(Cc2cccs2)C[C@@H]2CCCO[C@@H]21 .
Given back: 31.4

Asked: Fill in: INHIBITION of CC(C)NC(=O)CC1CC2(CCN(S(C)(=O)=O)CC2)c2ccccc21 (centres undefined) is ___
Given back: 18.5

Asked: Looking for the measured INHIBITION of CNC(=O)CC1CC2(CCN(S(C)(=O)=O)CC2)c2ccccc21 (centres undefined) , can you help?
Given back: 6.66

Asked: Returns the measured INHIBITION for the input molecule. Input: COCC(=O)N1CCCC1c1csc(Nc2cnccn2)n1 (centres undefined)
Given back: 44.1

Asked: Entry CC(C)c1ccc(S(=O)(=O)NC2(CC(N)=O)CCC2)cc1 has what INHIBITION?
Given back: 37.7

Asked: // returns reported INHIBITION for input CCn1ccc(NC(=O)CCn2nc(C)c3ccccc32)n1
Given back: -21.3

Asked: Entry under review: CN1CCN(C2CCN(CCCOc3ccc(F)cc3)CC2)C1=O . Reported INHIBITION?
Given back: 47

----------
tested on: Plasmodium berghei; assay: Screen against P. berghei liver stage (PbLuc), transformed with Luciferase, at 10uM; assay type: functional, HepG2; conditions: tested at 10 uM
Among all 69,000 compounds or so, about 8,600 (12%) showed an effect of 50% or more. Shown is part of a subset that was picked to be rich in strong results.
Use fulfilled when the recorded INHIBITION is no lower than 30%; use not fulfilled when it is lower.

Asked: Decide: INHIBITION of COCCCN1CC2(CCN(Cc3ncc[nH]3)CC2)CC1=O >= 30%?
Given back: not fulfilled

----------
system: Plasmodium berghei; test: Screen against P. berghei liver stage (PbLuc), transformed with Luciferase, at 10uM; type: functional, HepG2; settings: tested at 10 uM
Out of some 69,000 compounds screened, about 8,600 (12%) showed an effect of 50% or more. The list comes from a sample in which strong results are over-represented; it also holds close analogues and randomly drawn compounds.
Assign Satisfied to entries whose INHIBITION meets or exceeds 30%; assign Not satisfied to the rest.

Example entries begin here.
INSERT INTO results (molecule, target_desc, class_label) VALUES
  ('O=C([C@@H]1C[C@@H]2CCN(c3cccc(F)c3)C[C@H]2O1)N1CCCC1', 'Plasmodium berghei', 'Satisfied'),
  ('Cc1ccc(C(=O)NCCCn2cccn2)c(=O)[nH]1', 'Plasmodium berghei', 'Not satisfied'),
  ('O=C([C@H]1C[C@@H]2CCN(c3cccc(F)c3)C[C@H]2O1)N1CCCC1', 'Plasmodium berghei', 'Satisfied'),
  ('COCCNC(=O)NCc1cc(-c2cccs2)n(C2CCCC2)n1', 'Plasmodium berghei', 'Satisfied'),
  ('Cc1ccc(C(=O)NCC(C)CN2CCCC2=O)c(=O)[nH]1 (configuration not stated)', 'Plasmodium berghei', 'Satisfied');

Asked: Check this molecule for INHIBITION at or above 30%: CC(=O)N1CCC(Cc2nccnc2-c2c(C)n[nH]c2C)C1 (configuration not stated)
Given back: Not satisfied

Asked: Does the reported INHIBITION for Cc1ccc(C(=O)NCC(C)Cn2cccn2)c(=O)[nH]1 (configuration not stated) fall at or above the 30% mark?
Given back: Satisfied

Asked: Decide: INHIBITION of CCC(CC)NC(=O)c1ncn2c1CN(CC)S(=O)(=O)c1ccccc1-2 >= 30%?
Given back: Satisfied

Asked: // inclusive: INHIBITION at least 30%? input: CCc1ncnc2c1CCN(Cc1cccs1)CC2
Given back: Not satisfied

----------
tested on: Plasmodium berghei; assay: Screen against P. berghei liver stage (PbLuc), transformed with Luciferase, at 10uM; type: functional, HepG2; conditions: tested at 10 uM
The whole screen tested about 69,000 compounds, of which about 8,600 (12%) showed an effect of 50% or more. The full list was thinned out, with strong results kept by preference.
Property name: INHIBITION (%)
Express it in %; write the number only.

Example compounds with recorded INHIBITION:
INSERT INTO assay_data (compound, property_name, reported) VALUES
  ('N#CC1(C(=O)N2CCOC(c3ccc(Cl)cc3)C2)CCCC1 (configuration not stated)', 'INHIBITION', 57.1),
  ('Cc1cc(CN2CCCC(Cn3cncn3)C2)no1 (configuration not stated)', 'INHIBITION', 3.73),
  ('NS(=O)(=O)CCN1CCOC(c2ccc(Cl)cc2)C1 (configuration not stated)', 'INHIBITION', -51.9),
  ('O=C(CN1C(=O)CCNC1=O)N1CCOC(c2ccc(F)cc2)C1 (configuration not stated)', 'INHIBITION', -141),
  ('CC(CS(C)(=O)=O)N(C(=O)c1ccc(Cl)s1)C1CC1 (configuration not stated)', 'INHIBITION', 52.1);

Asked: Find the recorded INHIBITION belonging to CN(C)C(=O)c1cccnc1SCc1ccccc1C#N and report it.
Given back: 1.61

Asked: Value lookup for INHIBITION; key = CC(=O)N1N=C(Cc2ccccc2)OC1C(=O)NCC(=O)OC(C)(C)C (configuration not stated)
Given back: 12.5

Asked: GET /values?readout=INHIBITION&item= CC(CS(C)(=O)=O)N(C(=O)Nc1cc(F)ccc1Cl)C1CC1 (configuration not stated)
Given back: 3.63

Asked: Item under review: CCn1cnnc1CNC(=O)N1CCOC(c2ccc(Cl)cc2)C1 (configuration not stated) . Reported INHIBITION?
Given back: 27.5

Asked: Request the reported INHIBITION associated with N#Cc1cn(C2CC2)c(=O)n(CC(O)c2ccc(Cl)cc2)c1=O (configuration not stated)
Given back: 9.1

Asked: Need INHIBITION of CC(CS(C)(=O)=O)N(C(=O)CCc1ccc(Cl)s1)C1CC1 (configuration not stated) , thanks.
Given back: 31.5

Asked: Requested read-out: INHIBITION. Entry: N#CC1(C(=O)N2CCOC(c3ccc(F)cc3)C2)CCCC1 (configuration not stated)
Given back: 54.2

All values here come from ChEMBL document CHEMBL4513216.
